System: OVCAR-3
Assay: NCI tumour cell line growth inhibition, 48 h
Active and inactive are the calls of the source. No stated cut-off is given here; in the data, active = GI50 up to about 1.1 µM and inactive = higher.
Lab note: assign the record to one of active, inactive

Illustrative cases are given below, each with its answer.
molecule=O=C(CSc1nc2ccc(I)cc2c(=O)n1Cc1ccccc1)N/N=C/c1ccccc1 category=inactive
molecule="CC1(C)CC[C@]2(C(=O)O)CC[C@]3(C)C(=CC[C@@H]4[C@@]5(C)CC[C@H](OC6OC(CO)C(O)C(O)C6OC6OC(CO)C(O)C(O)C6O)C(C)(C)[C@@H]5CC[C@]43C)[C@@H]2C1 (some centres undefined)" category=inactive
molecule=COc1cccc(-n2c3nc(=O)n(C)c(=O)c-3nc3ccccc32)c1 category=inactive

Alright, here's another molecule for you.
Answer briefly: the call reported for `O=C(c1ccccc1)c1nc2ccc(Cl)cc2cc1C(Br)Br` in this assay. active

Data provenance: ChEMBL document CHEMBL1201862
